Consider the following molecules; for each one, report its DC50.
target: BRD4 short (Homo sapiens, UniProt O60885); construct: endogenous in cells; host or cells: HEK293T; assay: BRD4 (short) degradation assay, Western blotting; type: cell-based; conditions: second value of cell (long/short)

Known results for molecules:
COc1ccc(C(=O)/C=C/C(=O)N2CCC3(CCN(C(=O)C[C@@H]4N=C(c5ccc(Cl)cc5)c5c(sc(C)c5C)-n5c(C)nnc54)C3)C2)cc1 (stereo partly drawn) = 1 to 10 nM
COc1ccc(C(=O)/C=C/C(=O)N2CCN(C(=O)C[C@@H]3N=C(c4ccc(Cl)cc4)c4c(sc(C)c4C)-n4c(C)nnc43)CC23CC3)cc1 = 10 to 100 nM
Cc1sc2c(c1C)C(c1ccc(Cl)cc1)=N[C@@H](CC(=O)N[C@H]1C[C@H](NC(=O)/C=C/C(=O)N3CCOCC3)C1)c1nnc(C)n1-2 = > 5000 nM

Give DC50 for each listed item.
1. Cc1sc2c(c1C)C(c1ccc(Cl)cc1)=N[C@@H](CC(=O)N1CCN(C(=O)/C=C/C(=O)c3ccc4c(c3)NC(=O)CO4)CC1)c1nnc(C)n1-2
2. Cc1sc2c(c1C)C(c1ccc(Cl)cc1)=N[C@@H](CC(=O)N1CCN(C(=O)/C=C/C(=O)c3ccc(F)cc3)CC1)c1nnc(C)n1-2
3. COc1ccc(C(=O)/C=C/C(=O)N[C@H]2C[C@H](NC(=O)C[C@@H]3N=C(c4ccc(Cl)cc4)c4c(sc(C)c4C)-n4c(C)nnc43)C2)c(Cl)c1

1. 10 to 100 nM
2. < 100 nM
3. 180 nM

---

Assign DC50 to each entry below.
molecular target: BRD4 short (Homo sapiens); construct: endogenous in cells; host or cells: HEK293T; test: BRD4 (short) degradation assay, Western blotting; format: cell-based; conditions: second value of cell (long/short)

Cc1sc2c(c1C)C(c1ccc(Cl)cc1)=N[C@@H](CC(=O)N[C@H]1C[C@@H](NC(=O)/C=C/C(=O)N3CCOCC3)C1)c1nnc(C)n1-2 = > 5000 nM
Cc1sc2c(c1C)C(c1ccc(Cl)cc1)=N[C@@H](CC(=O)N1CCN(C(=O)/C=C/C(=O)N3CCN(C)CC3)CC1)c1nnc(C)n1-2 = > 5000 nM
COc1ccc(C(=O)/C=C/C(=O)N2CCN(C(=O)C[C@@H]3N=C(c4ccc(Cl)cc4)c4c(sc(C)c4C)-n4c(C)nnc43)[C@H](C)C2)cc1 = < 10 nM
Cc1sc2c(c1C)C(c1ccc(Cl)cc1)=N[C@@H](CC(=O)N1CCN(C(=O)/C=C/C(=O)c3ccc4c(c3)OCC4)CC1)c1nnc(C)n1-2 = < 10 nM
Cc1sc2c(c1C)C(c1ccc(Cl)cc1)=N[C@@H](CC(=O)N[C@H]1C[C@@H](NC(=O)/C=C/C(=O)C(C)(C)C)C1)c1nnc(C)n1-2 = 10 to 100 nM

// returns reported DC50 for input "COc1ccc(C(=O)/C=C/C(=O)N2CCN(C(=O)C[C@@H]3N=C(c4ccc(Cl)cc4)c4c(sc(C)c4C)-n4c(C)nnc43)CC2)cn1"
10 to 100 nM

---

biological target: CDK4 (Homo sapiens); construct: endogenous in cells; host or cells: C33A; test: CDK4 Degradation Assay, Western blotting; format: cell-based
Sequence (P11802 whole entry): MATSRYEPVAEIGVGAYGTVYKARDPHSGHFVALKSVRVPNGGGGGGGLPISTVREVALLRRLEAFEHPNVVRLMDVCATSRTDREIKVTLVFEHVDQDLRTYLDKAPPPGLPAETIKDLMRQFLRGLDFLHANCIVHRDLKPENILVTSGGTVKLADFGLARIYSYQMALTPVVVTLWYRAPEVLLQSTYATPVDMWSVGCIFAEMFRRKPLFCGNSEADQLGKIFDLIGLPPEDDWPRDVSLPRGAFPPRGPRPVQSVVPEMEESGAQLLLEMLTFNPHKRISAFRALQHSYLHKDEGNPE
Record form. Attribute: DC50. Fill in for each entry.

COc1ccc(C(=O)/C=C/C(=O)N2CCN(c3ccc(Nc4ncc5cc(C(=O)N(C)C)n(C6CCCC6)c5n4)nc3)CC2)c(Cl)c1 = > 10 µM

Quick batch: DC50 for everything below.
1. CN(C)C(=O)c1cc2cnc(Nc3ccc(N4CCN(C(=O)/C=C/C(=O)c5ccc6c(c5)OCC6)CC4)cn3)nc2n1C1CCCC1
2. COc1ccc(C(=O)/C=C(\C)C(=O)N2CCN(c3ccc(Nc4ncc5cc(C(=O)N(C)C)n(C6CCCC6)c5n4)nc3)CC2)cc1
3. COc1ccc(C(=O)/C=C/C(=O)N2CCN(c3ccc(Nc4ncc5cc(C(=O)N(C)C)n(C6CCCC6)c5n4)nc3)CC2)c(F)c1
4. CN(C)C(=O)c1cc2cnc(Nc3ccc(N4CCN(C(=O)/C=C/C(=O)c5ccc6c(c5)OCCO6)CC4)cn3)nc2n1C1CCCC1
5. COc1ccc(C(=O)/C=C/C(=O)N2CCN(c3ccc(Nc4ncc5cc(C(=O)N(C)C)n(C6CCCC6)c5n4)nc3)[C@H](C)C2)cc1

1. > 10 µM
2. > 10 µM
3. > 10 µM
4. > 10 µM
5. 1 to 10 µM
